Test system: LOC_OS05G07850-cb002;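 also: purified Escherichia coli-expressed rice kinase domain construct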
TEST PROTOCOL: thermal shift delta Tm vs DMSO control; higher = stronger stabilization (binding)
SETTINGS: 12.5 µM; protein concentration 2 µM
Structures can show the parent of a compound that is named as a salt.
Given measured thermal shift delta Tm, output class 1 if it is greater than or equal to 2 °C and class 0 if not.

Problem: Hi, just wondering whether C=CC(=O)Nc1cccc(Oc2nc(Nc3ccc(N4CCN(C)CC4)cc3)nc3ccsc23)c1 shows thermal shift delta Tm of 2 °C or higher.
Result: class 1

Problem: Hi, just wondering whether CCn1c(C(=O)N(C2CC2)C2CC2)cc2c3c(ncn3C)c(Nc3cc(C)n(C)n3)nc21 shows thermal shift delta Tm of 2 °C or higher.
Result: class 1

Problem: Hi, just wondering whether CC(C)NC(=O)COc1cccc(-c2nc(Nc3ccc4[nH]ncc4c3)c3ccccc3n2)c1 shows thermal shift delta Tm of 2 °C or higher.
Result: class 0

Problem: Hi, just wondering whether Cc1ccc(NC(=O)c2ccc(CN3CCN(C)CC3)cc2)cc1Nc1nccc(-c2cccnc2)n1 [Imatinib (STI571)] shows thermal shift delta Tm of 2 °C or higher.
Result: class 1

Problem: Hi, just wondering whether C=CC(=O)Nc1cccc(Nc2nc(Nc3ccc(Oc4ccnc(C(=O)NC)c4)cc3)ncc2F)c1 shows thermal shift delta Tm of 2 °C or higher.
Result: class 1

Problem: Hi, just wondering whether O=C(Nc1cccc(C(F)(F)F)c1)c1cccc2cc(Oc3cc(CO)ncn3)ccc12 shows thermal shift delta Tm of 2 °C or higher.
Result: class 0

Problem: Hi, just wondering whether CNC(=O)c1cc(Oc2ccc3nc(N[C@@H]4CCCC[C@H]4O)sc3c2)ccn1 shows thermal shift delta Tm of 2 °C or higher.
Result: class 0

Problem: Hi, just wondering whether CNC(=O)c1cc(Oc2ccc(NC(=O)Nc3ccc(Cl)c(C(F)(F)F)c3)cc2)ccn1 [Sorafenib Tosylate] shows thermal shift delta Tm of 2 °C or higher.
Result: class 1

Problem: Hi, just wondering whether C=CC(=O)Nc1cccc(C)c1Nc1ncc2cc(-c3c(Cl)c(OC)cc(OC)c3Cl)ccc2n1 shows thermal shift delta Tm of 2 °C or higher.
Result: class 0

Problem: Hi, just wondering whether CN(C)C/C=C/C(=O)Nc1cc2c(Nc3ccc(F)c(Cl)c3)ncnc2cc1O[C@H]1CCOC1 [Afatinib (BIBW2992) Dimaleate] shows thermal shift delta Tm of 2 °C or higher.
Result: class 1

Problem: Hi, just wondering whether CO[C@@H](C)Cn1c(=O)n(C)c2cnc3ccc(-c4cncc(C(C)(C)O)c4)cc3c21 shows thermal shift delta Tm of 2 °C or higher.
Result: class 1
